Data origin, for the record: patent US6627581B1

Some compounds, each annotated with its measured melting point.

Given the entry Cc1c(C(=O)c2cnn(C(C)C)c2O)ccc(S(C)(=O)=O)c1C1=NOC2CC12 (stereo not shown) , report its measured melting point.
90 to 95 °C

Continuing:
Given the entry Cc1c(C(=O)c2cnn(C)c2O)ccc(S(C)(=O)=O)c1C1=NOC2CC12 (stereo not shown) , report its measured melting point.
106 to 112 °C

And Cc1c(C(=O)c2cnn(C(C)(C)C)c2O)ccc(S(C)(=O)=O)c1C1=NOC2CC12 (stereo not shown) ?
69 to 74 °C

And Cc1c(C(=O)c2cnn(C(C)(C)C)c2O)ccc(S(C)(=O)=O)c1C1=NOC2CC12C (stereo not shown) ?
110 to 115 °C
